FYI, the data here is from the supplement of paper PMC11061612.

Assign Bliss excess to each entry below.
Test system: Hey (Ovarian Carcinoma);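 note: after 72 h of two-drug dosing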
Test: Bliss excess, mean over the matrix (fraction); higher = more synergy
API doc: respond with a numeric literal and nothing else, no unit.

## Task What measured Bliss excess is associated with COc1cccc2c1C(=O)c1c(O)c3c(c(O)c1C2=O)C[C@@](O)(C(=O)CO)C[C@@H]3O[C@H]1C[C@H](N)[C@H](O)[C@H](C)O1 [Doxorubicin] + Cc1cc2ncnn2cc1Nc1ncc2c(n1)n(C1CCOCC1)c(=O)n2C [AZD7648] (first compound max 1 µM, 7x7, partner max 10 µM) on Hey (Ovarian Carcinoma)?
## Result 0.13

## Task Query for Hey (Ovarian Carcinoma): what Bliss excess does the record show for C[C@@H](c1ccc2nccn2c1)n1nnc2ncc(-c3cnn(C)c3)nc21 [Savolitinib] + CC1(C)CCC(CN2CCN(c3ccc(C(=O)NS(=O)(=O)c4ccc(NCC5CCOCC5)c([N+](=O)[O-])c4)c(Oc4cnc5[nH]ccc5c4)c3)CC2)=C(c2ccc(Cl)cc2)C1 [Venetoclax] (first compound max 1 µM, 7x7, partner max 1 µM) ?
## Result -0.0651

## Task Find Bliss excess (Hey (Ovarian Carcinoma)) for the entry C[C@@H](c1ccc2nccn2c1)n1nnc2ncc(-c3cnn(C)c3)nc21 [Savolitinib] + CN(CC[C@H](CSC1=CC=CC=C1)NC2=C(C=C(C=C2)S(=O)(=O)NC(=O)C3=CC=C(C=C3)N4CCC(CC4)[C@H](C5=CC=CC=C5C6=CC=C(C=C6)Cl)O)S(=O)(=O)C(F)(F)F)CCO [AZD4320] (first compound max 1 µM, 7x7, partner max 1 µM)
## Result -0.0466

## Task Reported Bliss excess for Hey (Ovarian Carcinoma), given Cc1c2c(nn1C)CSCc1cc(n(C)n1)CSc1cc(c3ccccc3c1)OCCCc1c(C(=O)O)n(C)c3c-2c(Cl)ccc13 [AZD5991] + C[C@@H](Nc1cc(F)cc(F)c1)c1cc(C(=O)N(C)C)cc2c(=O)cc(N3CCOCC3)oc12 [AZD8186] (first compound max 1 µM, 7x7, partner max 3 µM) ?
## Result 0.0023

## Task // fetch Hey (Ovarian Carcinoma) Bliss excess for CC1(C)CCC(CN2CCN(c3ccc(C(=O)NS(=O)(=O)c4ccc(NCC5CCOCC5)c([N+](=O)[O-])c4)c(Oc4cnc5[nH]ccc5c4)c3)CC2)=C(c2ccc(Cl)cc2)C1 [Venetoclax] + C[C@@H](Nc1cc(F)cc(F)c1)c1cc(C(=O)N(C)C)cc2c(=O)cc(N3CCOCC3)oc12 [AZD8186] (first compound max 1 µM, 7x7, partner max 3 µM)
## Result -0.0286

## Task What is its Bliss excess for Hey (Ovarian Carcinoma)? Entry: NC1(C(=O)N[C@@H](CCO)c2ccc(Cl)cc2)CCN(c2ncnc3[nH]ccc23)CC1 [Capivasertib] + CC(C)n1c(=O)n(C)c2cnc3cc(F)c(-c4ccc(OCCCN5CCCCC5)nc4)cc3c21 [AZD1390] (first compound max 10 µM, 7x7, partner max 0.3 µM)
## Result -0.0766
